The entries below come with measured IC50 values attached.
target: SMYD3 (Homo sapiens); experiment: SMYD3 biochemical assay (MTase-Glo, MAP3K2 peptide substrate); conditions: Table 3; MTase assay, MAP3K2 peptide substrate; read-out: IC50
Sequence (Q9H7B4 whole entry): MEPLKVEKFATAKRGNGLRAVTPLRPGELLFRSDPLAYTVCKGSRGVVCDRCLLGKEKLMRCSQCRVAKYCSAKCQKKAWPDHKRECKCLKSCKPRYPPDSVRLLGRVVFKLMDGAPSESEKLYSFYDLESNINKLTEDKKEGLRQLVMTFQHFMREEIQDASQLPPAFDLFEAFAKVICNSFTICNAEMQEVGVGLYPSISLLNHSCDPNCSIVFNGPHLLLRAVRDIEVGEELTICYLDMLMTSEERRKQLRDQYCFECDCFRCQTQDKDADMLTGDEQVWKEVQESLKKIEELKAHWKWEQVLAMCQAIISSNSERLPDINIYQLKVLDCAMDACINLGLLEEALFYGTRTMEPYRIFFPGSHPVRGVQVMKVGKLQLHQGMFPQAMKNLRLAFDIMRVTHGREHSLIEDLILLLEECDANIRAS
Mention the unit after the number when you answer.

Here's what some known entries look like.
CCCOC(=O)N1CCN(C(=O)c2ccc3c(Cl)cc(-c4ccc(C(=O)NC)cc4)nc3c2)[C@@H](C)C1    130 nM
CCCOC(=O)N1CCN(C(=O)c2ccc3c(Cl)cc(-c4ccc5[nH]cc(C)c5c4)nc3c2)CC1    1010 nM
O=C(c1ccc2c(Cl)cc(-c3ccccc3)nc2c1)N1CCN(C(=O)c2cn(C3CC3)nn2)CC1    4 nM
CCCOC(=O)N1CCN(C(=O)c2ccc3c(Cl)cc(-c4ccc(CNC)cc4)nc3c2)C[C@H]1C    42 nM
CCCOC(=O)N1CCN(C(=O)c2ccc3c(Cl)cc(-c4cccc(N5CCOCC5)c4)nc3c2)C[C@H]1C    240 nM

Need IC50 of `CCCOC(=O)N1CCN(C(=O)c2ccc3c(Cl)c(C)c(-c4cccc(C#N)c4)nc3c2)CC1` , thanks. 5500 nM

Entry under review: CCCOC(=O)N1CCN(C(=O)c2ccc3c(Cl)c4c(nc3c2)CCCC4)C(CC)C1 (centres unmarked) . Reported IC50? 640 nM

Consider the molecule shown here: `CCCOC(=O)N1CCN(C(=O)c2ccc3c(Cl)cc(-c4ccc(NC(C)=O)nc4)nc3c2)CC1` What is its recorded IC50? 110 nM

Suppose we examine the molecule `CCCOC(=O)N1CCN(C(=O)c2ccc3c(Cl)cc(-c4ccccc4)nc3c2)[C@@H](C)C1` ; what IC50 value has been reported? 170 nM

Data request, read-out IC50, for `CCCOC(=O)N1CCN(C(=O)c2ccc3c(Cl)cc(-c4ccsc4)nc3c2)CC1` 99 nM

Name the recorded IC50 for `CCCOC(=O)N1CCN(C(=O)c2ccc3c(Cl)cc(-c4cccc(N(C)C)c4)nc3c2)CC1` . 1470 nM

Requested field: IC50. Item: `CCCOC(=O)N1CCN(C(=O)c2ccc3c(Cl)cc(-c4ccc5ocnc5c4)nc3c2)CC1` 330 nM

What IC50 value was documented for this molecule, `CCCOC(=O)N1CCN(C(=O)c2ccc3c(Cl)cc(-c4ccc5c(c4)ncn5C)nc3c2)CC1` ? 120 nM

* * *

molecular target: SMYD3 (Homo sapiens); assay: SMYD3 biochemical assay (MTase-Glo, MAP3K2 peptide substrate); conditions: Table 3; MTase assay, MAP3K2 peptide substrate; read-out: IC50
Entries annotated with measured pIC50
For clarity, pIC50 is expressed as the negative log10 of concentration in mol/L.

Illustrative cases are given below, each with its answer.
CCCOC(=O)N1CCN(C(=O)c2ccc3c(Cl)cc(-c4ccc(C(F)(F)F)cc4)nc3c2)CC1    5.43
CCCCOC(=O)N1CCN(C(=O)c2ccc3c(Cl)c4c(nc3c2)CCCC4)CC1    6.38
CCCOC(=O)N1CCN(C(=O)c2ccc3c(Cl)c4c(nc3c2)CC(CN)CC4)[C@H](C)C1 (some centres unmarked)    6.64
CN(C)Cc1cc(-c2cc(Cl)c3ccc(C(=O)N4CCN(C(=O)c5cn(C6CC6)nn5)CC4)cc3n2)ccc1F    7.24

Would you kindly share the measured pIC50 for `CCCOC(=O)N1CCN(C(=O)c2ccc3c(Cl)cc(-c4ccc(N(C)C)cc4)nc3c2)CC1` ? 6.46

Which pIC50 is listed for CCCOC(=O)N1CCN(C(=O)c2ccc3c(Cl)c4c(nc3c2)CC(CN)CC4)CC1 (centres unmarked) ? 6.42

Fill in: pIC50 of CCCOC(=O)N1CCN(C(=O)c2ccc3c(Cl)c4c(nc3c2)CC(CCN)CC4)[C@@H](C)C1 (some centres unmarked) is ___ 7.05

Reported pIC50, molecule `CCCOC(=O)N1CCN(C(=O)c2ccc3c(Cl)cc(-c4ccc(F)c(OC)c4)nc3c2)C[C@H]1C` : ____ 7.85

Look up pIC50 for this molecule: `CCCOC(=O)N1CCN(C(=O)c2ccc3c(Cl)cc(C4(C)CC4)nc3c2)CC1` 5.85
